Documented BDNF activity in TrkBluciferase assay, EC50 [nM] across a set of binders
subject.of.test: human TrkB on CHO cells (CHO-K1-hTrkB/pSRE-Luc) (human) (UniProt Q16620)
Sequence (Q16620 32-822): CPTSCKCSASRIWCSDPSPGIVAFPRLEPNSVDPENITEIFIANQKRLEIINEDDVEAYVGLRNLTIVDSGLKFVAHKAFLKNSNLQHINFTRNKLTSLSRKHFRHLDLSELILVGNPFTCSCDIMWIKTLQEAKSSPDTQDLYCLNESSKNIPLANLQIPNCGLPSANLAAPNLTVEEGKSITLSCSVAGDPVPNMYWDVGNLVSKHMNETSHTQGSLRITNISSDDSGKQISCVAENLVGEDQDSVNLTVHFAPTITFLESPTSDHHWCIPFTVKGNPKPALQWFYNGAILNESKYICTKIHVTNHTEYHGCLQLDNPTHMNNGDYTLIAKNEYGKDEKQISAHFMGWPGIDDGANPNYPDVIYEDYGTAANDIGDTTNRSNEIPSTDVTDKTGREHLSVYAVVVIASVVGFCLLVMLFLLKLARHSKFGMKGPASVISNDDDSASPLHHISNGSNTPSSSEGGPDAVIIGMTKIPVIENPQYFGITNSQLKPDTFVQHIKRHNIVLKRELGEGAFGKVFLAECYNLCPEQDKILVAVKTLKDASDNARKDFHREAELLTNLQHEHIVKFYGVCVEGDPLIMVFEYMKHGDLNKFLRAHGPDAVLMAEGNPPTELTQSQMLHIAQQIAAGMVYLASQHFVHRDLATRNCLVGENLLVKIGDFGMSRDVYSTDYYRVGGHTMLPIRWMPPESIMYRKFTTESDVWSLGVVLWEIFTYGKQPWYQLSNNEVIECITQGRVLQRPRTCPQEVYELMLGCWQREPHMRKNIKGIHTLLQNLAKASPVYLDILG
assay.comment: cell-based or functional assay
quantity.measured: BDNF activity in TrkBluciferase assay, EC50 [nM] (nM)

{"binder": "pre-pro-BDNF(-RGR)-T7-His6 (ligand) HSDPARRGELSVCDSISEWVTAADKKTAVDMSGGTVTVLEKVPVSKGQLKQYFYETKCNPMGYTKEGCRGIDKRHWNSQCRTTQSYVRALTMDSKKRIGWRFIRIDTSCVCTLTIKGSGMASMTGGQQMGHHHHHH", "test.result": 3.4}
{"binder": "pre-pro-BDNF(-RGR)-opsin(S)-T7-His6 (ligand) APMKEANIRGQGGLAYPGVRTHGTLESVNGPKAGSRGLTSLADTFEHVIEELLDEDQKVRPNEENNKDADLYTSRVMLSSQVPLEPPLLFLLEEYKNYLDAANMSMRVRRHSDPARRGELSVCDSISEWVTAADKKTAVDMSGGTVTVLEKVPVSKGQLKQYFYETKCNPMGYTKEGCRGIDKRHWNSQCRTTQSYVRALTMDSKKRIGWRFIRIDTSCVCTLTIKGSGNGTEGPNFYVPFSNATGSGMASMTGGQQMGHHHHHH", "test.result": 0.3}
